SYSTEM: Sterol O-acyltransferase 1 (Rattus norvegicus)
ASSAY TEXT: Chronic in vivo activity was measured by the concentration of high density lipoproteins (HDL) in cholesterol fed rats
Type: functional, organism-based
READOUT LABEL: Delta HDL (%)

# MOLECULE, READOUT LABEL, RECORDED VALUE
measured = [
    ("CC(C)c1cccc(C(C)C)c1NS(=O)(=O)NC(=O)Oc1c(C(C)(C)C)cccc1C(C)(C)C", "Delta HDL", 200),
    ("CC(C)c1cccc(C(C)C)c1NC(=O)NS(=O)(=O)N(C(C)C)C(C)C", "Delta HDL", 83),
    ("CCCCCCCCCCCCOS(=O)(=O)NC(=O)Oc1c(C(C)(C)C)cc(C)cc1C(C)(C)C", "Delta HDL", 23),
    ("CC(C)c1cccc(C(C)C)c1OC(=O)NS(=O)(=O)N(C(C)C)C1CCCCC1", "Delta HDL", 188),
    ("Cc1cc(C(C)(C)C)c(OC(=O)NS(=O)(=O)NCC(c2ccccc2)c2ccccc2)c(C(C)(C)C)c1", "Delta HDL", 144),
    ("CC(C)c1cccc(C(C)C)c1OS(=O)(=O)NC(=O)Oc1c(C(C)(C)C)cc(C(C)(C)C)cc1C(C)(C)C", "Delta HDL", 108),
    ("CC(C)c1cccc(C(C)C)c1OS(=O)(=O)NC(=O)Oc1c(-c2ccccc2)cccc1-c1ccccc1", "Delta HDL", 21),
    ("CC(C)c1cc(C(C)C)c(NC(=O)NS(=O)(=O)Oc2c(C(C)C)cccc2C(C)C)c(C(C)C)c1", "Delta HDL", 18),
    ("CC(C)c1cccc(C(C)C)c1OC(=O)NS(=O)(=O)N(C(C)C)C(C)C", "Delta HDL", 82),
    ("CC(C)c1cccc(C(C)C)c1NC(=O)NS(=O)(=O)N(c1ccccc1)c1ccccc1", "Delta HDL", 170),
    ("CC(C)c1cccc(C(C)C)c1NC(=O)NS(=O)(=O)Nc1c(C(C)C)cccc1C(C)C", "Delta HDL", 80),
    ("Cc1cc(C(C)(C)C)c(OC(=O)NS(=O)(=O)NC(c2ccccc2)c2ccccc2)c(C(C)(C)C)c1", "Delta HDL", 100),
    ("COc1cc(OC)c(OS(=O)(=O)NC(=O)Oc2c(C(C)C)cccc2C(C)C)c(OC)c1", "Delta HDL", 62),
    ("CCCCCCCCCCCCOS(=O)(=O)NC(=O)Oc1c(C(C)C)cccc1C(C)C", "Delta HDL", 31),
    ("CC(C)c1cccc(C(C)C)c1NS(=O)(=O)NC(=O)Oc1c(C(C)C)cccc1C(C)C", "Delta HDL", 388),
    ("CC(C)c1cccc(C(C)C)c1NC(=O)NS(=O)(=O)N(Cc1ccccc1)Cc1ccccc1", "Delta HDL", 183),
    ("CC(C)(C)c1cccc(C(C)(C)C)c1OC(=O)NS(=O)(=O)NC(c1ccccc1)c1ccccc1", "Delta HDL", 50),
    ("CC(C)c1cccc(C(C)C)c1NC(=O)NS(=O)(=O)N(C(C)C)C1CCCCC1", "Delta HDL", 94),
    ("CC(C)c1cccc(C(C)C)c1NC(=O)NS(=O)(=O)N(Cc1ccccc1)C(C)C", "Delta HDL", 150),
    ("CC(C)c1cccc(C(C)C)c1OC(=O)NS(=O)(=O)N(Cc1ccccc1)C(C)C", "Delta HDL", 114),
    ("CC(C)c1ccc(C(C)C)c(NC(=O)NS(=O)(=O)Oc2c(C(C)C)cccc2C(C)C)c1", "Delta HDL", 5),
    ("CCCCCN(CCCCC)S(=O)(=O)NC(=O)Nc1c(C(C)C)cccc1C(C)C", "Delta HDL", 193),
    ("CCC(C)N(C(C)CC)S(=O)(=O)NC(=O)Nc1c(C(C)C)cccc1C(C)C (configuration not stated)", "Delta HDL", 86),
    ("CC(C)c1cccc(C(C)C)c1NC(=O)NS(=O)(=O)N(C(C)C)C(C)(C)C", "Delta HDL", 43),
    ("Cc1cc(C(C)(C)C)c(OC(=O)NS(=O)(=O)Oc2c(C(C)C)cccc2C(C)C)c(C(C)(C)C)c1", "Delta HDL", 205),
    ("CC(C)c1cccc(C(C)C)c1NC(=O)NS(=O)(=O)N(CC1CCCO1)CC1CCCO1 (configuration not stated)", "Delta HDL", 123),
    ("CC(C)c1cccc(C(C)C)c1OC(=O)NS(=O)(=O)N(c1ccccc1)c1ccccc1", "Delta HDL", 320),
    ("CC(C)CCN(CCC(C)C)S(=O)(=O)NC(=O)Nc1c(C(C)C)cccc1C(C)C", "Delta HDL", 133),
    ("CC(C)c1cccc(C(C)C)c1NC(=O)NS(=O)(=O)N(C)CCc1ccccc1", "Delta HDL", 43),
    ("CCCCCCCCN(C)S(=O)(=O)NC(=O)Nc1c(C(C)C)cccc1C(C)C", "Delta HDL", 123),
    ("COc1cc(C(C)C)c(OC(=O)NS(=O)(=O)Oc2c(C(C)C)cccc2C(C)C)c(C(C)C)c1", "Delta HDL", 8),
    ("CCCCCCCCCCCCCCCCCCOS(=O)(=O)NC(=O)Nc1c(C(C)C)cccc1C(C)C", "Delta HDL", 30),
    ("CC(C)c1cccc(C(C)C)c1NC(=O)NS(=O)(=O)N(C1CCCCC1)C1CCCCC1", "Delta HDL", 92),
    ("CCCCCCCCN(CCCCCCCC)S(=O)(=O)NC(=O)Nc1c(C(C)C)cccc1C(C)C", "Delta HDL", 150),
    ("CC(C)c1cc(O)cc(C(C)C)c1OC(=O)NS(=O)(=O)Oc1c(C(C)C)cccc1C(C)C", "Delta HDL", 95),
    ("CC(C)c1cccc(C(C)C)c1OS(=O)(=O)NC(=O)Oc1c(C(C)C)c(C(C)C)c(F)c(C(C)C)c1C(C)C", "Delta HDL", 208),
    ("CC(C)c1cc(C(C)C)c(OC(=O)NS(=O)(=O)Oc2c(C(C)C)cc(C(C)C)cc2C(C)C)c(C(C)C)c1", "Delta HDL", 129),
]
